tested on: HN30 cells; experiment: Inhibition of proliferation of HN30 squamous cell carcinoma cells (CCK-8 assay); type: cell-based; details: 48 hours, 0, 1.25, 2.5, 5, 10 μM, read-out: IC50 values against HN30 cells
IC50: recorded values
Supply the numeric figure in µM, leaving out any unit text.

# INPUT_SMILES, UNIT_ABBREVIATION, IC50
measured = [
    ("O=C(CCn1cc(F)c(=O)n(CCC(=O)Nc2ccc(C34CC5CC(CC(C5)C3)C4)cc2)c1=O)Nc1ccc(C23CC4CC(CC(C4)C2)C3)cc1", "µM", 7.09),
]

Any idea what IC50 was measured for O=c1[nH]cc(F)c(=O)[nH]1 ? 21.7
